The following molecules are listed with their measured composite z-score values.
system: Lefty1; assay: Lefty1 protein binding to printed compounds – biochemical, small-molecule microarray, 635/667 nm fluorescence, primary screen (AID 1139); conditions: fluorescence 635/667, higher = more signal
reported.metric: composite z-score

COc1ccc(CCNC(=O)[C@@]2(Cc3ccccc3I)c3ccccc3C(=O)N(C3CCCCC3)[C@H]2c2ccc(CO)cc2)cc1    0.106
CCCCCN1CC=CC23O[C@@H]4C=CCCOC(=O)C4[C@H]2C(=O)N(CCCCCCO)[C@@H]3C1=O (stereo partly specified)    -0.0715
CC(C)N1CC=CC23O[C@@H]4C=CCCOC(=O)C4[C@H]2C(=O)N(CCCO)[C@@H]3C1=O (stereo partly specified)    -0.0004
COC(=O)[C@]1(CCS(=O)(=O)c2ccccc2)N=C(c2ccc(OCCCO)cc2)O[C@@H]1c1ccccc1N=[N+]=[N-]    0.387
C#Cc1cc2ccccc2oc1=O    -1.58
[N-]=[N+]=NCc1ccccc1[C@H]1OC(c2ccc(OCCCO)cc2)=N[C@@]1(Cc1ccccc1N=[N+]=[N-])C(=O)NCC(O)CO (stereo partly specified)    0.194
COCC(=C=CC[C@H](O)c1ccc(CO)o1)CCO    0.915
NCCCCCCNC(=O)[C@@H]1C[C@@H]2C(=O)N[C@@H](CCCCN)C(=O)N2[C@@H]1c1ccc(O)cc1    0.731
COCCCNC(=O)[C@@]1(CCC(=O)OC(C)(C)C)N=C(c2ccc(OCCCO)cc2)O[C@H]1c1ccccc1N=[N+]=[N-]    -0.167
CCCN1C(=O)[C@]2(Cc3ccccc31)N=C(c1ccc(OCCCO)cc1)O[C@@H]2c1ccccc1    0.56
O=C(O)[C@@H]1[C@@H]2C(=O)N(c3ccccc3)C(=O)[C@@H]2C[C@@H]1Sc1ccccc1    -1.07

====

molecular target: NADPH oxidase 4 (Homo sapiens) (UniProt Q9NPH5); experiment: compounds shifting NOX4 Amplex Red fluorescence – cell-based, HEK293-NOX4, tetracycline-induced, NOX inhibitor project, primary screen (AID 1160); conditions: HEK293-NOX4, Amplex Red H2O2 fluorescence, 45 min; higher = more signal, called active from +8 up or from −8 down
Sequence (Q9NPH5 whole entry, looked up): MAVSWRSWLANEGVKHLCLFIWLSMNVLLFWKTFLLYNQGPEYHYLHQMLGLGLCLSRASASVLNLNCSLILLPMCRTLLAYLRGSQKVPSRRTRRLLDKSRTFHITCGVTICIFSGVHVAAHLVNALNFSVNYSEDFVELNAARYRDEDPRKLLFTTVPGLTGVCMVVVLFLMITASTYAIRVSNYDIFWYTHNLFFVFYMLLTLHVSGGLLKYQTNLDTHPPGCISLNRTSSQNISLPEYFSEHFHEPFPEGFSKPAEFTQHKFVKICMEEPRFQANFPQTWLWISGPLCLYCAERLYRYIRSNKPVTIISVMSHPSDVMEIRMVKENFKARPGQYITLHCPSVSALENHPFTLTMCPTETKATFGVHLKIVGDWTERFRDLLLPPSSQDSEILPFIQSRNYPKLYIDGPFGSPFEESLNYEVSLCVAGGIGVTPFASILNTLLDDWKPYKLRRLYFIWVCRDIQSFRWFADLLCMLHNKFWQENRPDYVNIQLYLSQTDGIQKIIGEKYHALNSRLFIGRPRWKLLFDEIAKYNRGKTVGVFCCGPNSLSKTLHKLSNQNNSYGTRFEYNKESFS
Rule: fulfilled for z-score not less than -1, not fulfilled for anything less.

CS(=O)(=O)CCOC(=O)C1=CC(c2ccc(CO)cc2)=CC(C2CC2)N(Cc2sc3ccccc3c2Cl)C=C1C(=O)OCCS(C)(=O)=O (stereo unspecified)    fulfilled
CO[C@H]1O[C@H](CO)[C@@H](OC(=O)Nc2ccc3c(c2)OCO3)[C@H](OC(=O)Nc2ccc3c(c2)OCO3)[C@@H]1OC(=O)Nc1ccc2c(c1)OCO2    not fulfilled
O=C(Cc1ccccc1)[C@H]1C2C=CCCC(c3ccccc3)=C2CN1Cc1ccccc1 (stereo partly specified)    fulfilled
CC(C)C(O)C1C=CC2C(=O)N(c3ccccc3)C(=O)C2N1Nc1ccccc1 (stereo unspecified)    not fulfilled
COC(=O)[C@@]1(Cc2ccc(OC)cc2)[C@H]2c3cc(C(=O)N(C)C)n(Cc4ccc(OC(F)(F)F)cc4)c3C[C@H]2CN1C(=O)c1ccccc1    fulfilled
O=C(O)[C@@H]1C[C@@H]2C(=O)N3CCC[C@H]3C(=O)N2[C@@H]1c1ccc(O)cc1    not fulfilled
COC(=O)C/C=C/C[C@]1(O)C(=O)N(C)c2ccccc21    fulfilled
[N-]=[N+]=Nc1ccccc1[C@@H]1OC(c2ccc(OCCCO)cc2)=N[C@]1(Cc1ccccc1)C(=O)O    fulfilled
N[C@@H](Cc1ccccc1)C(=O)NCc1cn(Cc2ccccc2)nn1    fulfilled
CCCC[C@@H](O)C1=C(COC)C[C@H]2C(=O)N(C)C(=O)[C@H]2[C@H]1CO    fulfilled
CC#CCO[Si](C#Cc1ccccc1)(C(C)C)C(C)C    fulfilled
C=CC[C@@]1(C(=O)NCCCOC)N=C(c2ccc(OCCCO)cc2)O[C@@H]1c1ccccc1N=[N+]=[N-]    fulfilled
COc1ccc(C#Cc2ccc3c(c2)[C@]2(C(=O)N3)[C@H](C(=O)O)[C@H]3C(=O)O[C@H](c4ccccc4)[C@H](c4ccccc4)N3[C@@H]2c2ccc(O)cc2)cc1    not fulfilled
COc1ccc(CCNC(=O)[C@@]2(c3ccc([N+](=O)[O-])cc3)CC(=O)N(C3CCCCC3)[C@@H]2c2ccc(CO)cc2)cc1    fulfilled
N#Cc1ccc(NN2C(C(O)c3ccc(Br)cc3)C=CC3C(=O)N(c4ccccc4)C(=O)C32)cc1 (stereo unspecified)    not fulfilled
CO[C@H]1O[C@H](CO)[C@@H](OC(=O)CCc2ccccc2)[C@@H]2OC(=O)[C@@H](Cc3ccccc3)C/C=C/C[C@H](Cc3ccccc3)C(=O)O[C@@H]12    fulfilled

====

test: probe aWnt5a binding to arrayed compounds – biochemical, biotinylated probe, 635/667 nm fluorescence, primary screen (AID 1113); details: small-molecule microarray, higher = more signal;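 further: score merges 667 nm fluorescence intensity with signal-to-noise per printed feature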
The following molecules are listed with their measured composite z-score values.
reported.metric: composite z-score

[N-]=[N+]=Nc1ccccc1[C@@H]1OC(c2ccc(OCCCO)cc2)=N[C@]1(Cc1ccccc1)C(=O)O    0.0391
C=CCN1C(=O)[C@]2(CCC(=O)OC(C)(C)C)N=C(c3ccc(OCCCO)cc3)O[C@@H]2c2ccccc21    -0.0441
[N-]=[N+]=Nc1ccccc1C[C@]1(C(=O)NCC(O)CO)COC(c2ccc(OCCCO)cc2)=N1 (stereo partly specified)    -0.132
N[C@@H](Cc1ccccc1)C(=O)NCc1cn(Cc2ccccc2)nn1    -0.119
NC(=O)NCC#Cc1ccc2c(c1)[C@]1(C(=O)N2)[C@H](C(=O)N2CCN(c3ncccn3)CC2)[C@H]2C(=O)O[C@H](c3ccccc3)[C@H](c3ccccc3)N2[C@@H]1c1ccc(O)cc1    0.108
O=C1N(Cc2ccccc2)c2ccccc2C[C@]12N=C(c1ccc(OCCCO)cc1)O[C@@H]2c1ccccc1    -0.0179
COC(=O)[C@@]1(Cc2ccc(OC)cc2)[C@H]2c3cc(C(=O)N4CCCC4)n(CCO)c3C[C@H]2CN1C(=O)c1ccccc1    0.433
O[C@@H](Cc1ccccc1)[C@@H](/C=C/C1CC1)N(CC#Cc1ccccc1)Cc1ccccc1Br    -0.203
COc1ccc([Si](C)(C)[C@@H]2[C@@H](CCO)O[C@]3(C(=O)N(Cc4cccc(NC(=O)[C@H](C)O)c4)c4ccccc43)[C@H]2C)cc1    0.0998
COc1cc(NN2C(C(O)c3ccco3)C=CC3C(=O)N(C)C(=O)C32)cc(OC)c1OC (stereo unspecified)    0.107
CC(C)NC(=O)[C@@]1(C)c2ccccc2C(=O)N(Cc2ccc(OC(F)(F)F)cc2)[C@H]1c1ccc(CO)cc1    -0.124
C=CCNC(=O)[C@@H]1[C@H]2C(=O)O[C@H](c3ccccc3)[C@H](c3ccccc3)N2[C@H](c2ccc(O)cc2)[C@@]12C(=O)N(C(=O)OCCOC)c1ccc(C#CC3=CCCCC3)cc12    -0.0685
CCCCCC1=C2CNC(C)(C(=O)OC)C=C2C(C)C1=O (stereo unspecified)    -0.0519
CC(c1ccccc1)C(O)C1C=CC2C(=O)N(C)C(=O)C2N1Nc1ccccc1 (stereo unspecified)    0.157
COC(=O)C1=CC(CCCO)=CC(c2ccc(CN3CCCC3)cc2)N(Cc2cccc(OC(F)(F)F)c2)C=C1C(=O)OC (stereo unspecified)    -0.172
O=C1[C@H]2C=C(I)[C@H](C[C@@H]2OCCOCCO)[C@@]12CO2    -0.26

====

test system: PRMT1 (protein arginine N-methyltransferase 1); assay: small molecules binding arginine methyltransferase PRMT1 – biochemical, small-molecule microarray, 635 nm fluorescence, primary screen (AID 1088); settings: higher = more signal;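 further: binding of Prmt1 protein to compounds spotted on small-molecule microarray slides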
reported.metric: composite z-score

COc1ccc([C@H]2OC[C@@H]3C[C@H](Cc4ccccc4)C(=O)N32)cc1    -0.476
COc1ccc(C#Cc2ccc3c(c2)[C@]2(C(=O)N3)[C@H](c3ccc(OCCO)cc3)N3[C@H](c4ccccc4)[C@H](c4ccccc4)OC(=O)[C@H]3[C@@H]2C(=O)NC[C@H](O)c2ccccc2)cc1    1.57
C=CCC(OC(C)=O)[C@@H]1[C@@H](N(Cc2ccc(-c3cccc(C(F)(F)F)c3)o2)C(=O)c2ccc(-c3ccccc3)cc2)c2cc(OCCCO)ccc2N1C(=O)Cc1ccc2ccccc2c1 (stereo not given in full)    -0.457
CCCCC(=C=CC[C@H](O)c1ccc(OCCO)cc1)CCO    -0.0461
CC(C)=C1C(=O)C(c2ccccc2)=C2CN3C(=O)N(CCc4ccccc4)C(=O)[C@]3(Cc3ccc(C(F)(F)F)cc3)[C@H]21    -0.555
O=C(NCCN1CCOCC1)[C@@H]1c2ccccc2C(=O)N(Cc2ccccc2Cl)[C@H]1c1ccc(CO)cc1    -0.7
O=C(O)[C@@H]1C[C@@H]2C(=O)N3CCC[C@H]3C(=O)N2[C@@H]1c1ccc(O)cc1    1.56
[N-]=[N+]=Nc1ccccc1C[C@]1(C(=O)NCC(O)CO)COC(c2ccc(OCCCO)cc2)=N1 (stereo not given in full)    0.149
CCCC=C(CCC)[C@@H](NS(=O)(=O)CC12CCC(CC1=O)C2(C)C)c1ccc(C(=O)OC)cc1 (stereo not given in full)    0.788
Cc1ccc(C(C)CC(O)C2C=CC3C(=O)N(c4ccccc4)C(=O)C3N2Nc2ccccc2)o1 (stereo not given)    1.53
COc1ccccc1CN1C(=O)c2ccccc2[C@](Cc2ccccc2I)(C(=O)O)[C@@H]1c1ccc(CO)cc1    1.51
C=CCNC(=O)[C@@H]1[C@H]2C(=O)O[C@H](c3ccccc3)[C@H](c3ccccc3)N2[C@H](c2ccc(O)cc2)[C@@]12C(=O)N(C(=O)OCCOC)c1ccc(C#CC3=CCCCC3)cc12    1.49
CCCCN1CC=CC23O[C@@H]4/C=C\CCC(C)OC(=O)C4[C@H]2C(=O)N(CCCO)[C@@H]3C1=O (stereo not given in full)    -0.298
CS(=O)(=O)CCOC(=O)C1=CC(CCCO)=CC(c2ccc(CN3CCCC3)cc2)N(Cc2sc3ccccc3c2Cl)C=C1C(=O)OCCS(C)(=O)=O (stereo not given)    1.54
CCOC(=O)C[C@H]1[C@H](OC(=O)c2ccc(C(=O)c3ccccc3)cc2)[C@@H](NC(=O)C2CCCCC2)c2cc(OCCCO)ccc2N1C(=O)c1ccc2ccccc2n1    1.34
